// normalized growth lookup, one value per entry
# assay-comment: chemical genetic growth profiling, strain panel (AID 1159580);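 also: tested at 20 µM; growth read once vehicle control cultures reached saturation at 30 °C; 1 = growth at the plate median or of vehicle wells; lower values mean less growth of the strain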
# test-context: S. cerevisiae deletion strains, growth OD, locus YNL020C, strain ARK1, stronger effect = lower value
The campaign covered roughly 5,500 compounds. About 2,000 (36%) were called active. Not shown: some 18% with an inconclusive outcome. Some of the results follow.
recorded-metric: normalized growth

# compound-structure-string, reading
rows = [
    ("Nc1cc(-c2ccc(OC(F)(F)F)cc2)nn1-c1ccc(Cl)c(Cl)c1", 0.53),
    ("N/C(=N/OC(=O)c1ccc(Cl)cc1)c1ccc(F)cc1F", 0.579),
    ("Clc1ccc(-c2noc(CSC3=NCCN3)n2)cc1", 0.962),
    ("CSc1cccc(N2C(=O)CC(c3c(Cl)cccc3Cl)CC2=O)c1", 0.993),
    ("NC(=NC(=O)c1ccc(Cl)cc1)c1cccs1", 0.821),
    ("O=C(Nc1ccccn1)c1cc(-c2ccccc2)c(C(F)(F)F)s1", 0.931),
    ("O=C(Nc1cccc(C(F)(F)F)c1)Oc1ccc(F)cc1Cl", 0.967),
    ("CCOC(=O)CCc1cc(N=Cc2cc(Br)ccc2O)c(O)c(N=Cc2cc(Br)ccc2O)c1", 0.79),
    ("CCc1cc2c(cc1-c1csc(C/C(N)=N\\O)n1)C(C)(C)CCC2(C)C", 0.788),
    ("N=C(N)SCc1nc(-c2ccc(Cl)cc2)no1", 0.986),
    ("Cc1cc(C(=O)O/N=C(/N)c2ccc(C(C)(C)C)cc2)no1", 0.942),
]
